Tested on: Renal cancer cell line
Assay: Cell growth inhibition of human Renal cancer cells incubated for 48 hrs by SRB assay
Assay type: functional
value-type: GI50 (µM)
Note: unit µM is implicit; provide only the numeric part.

>>> value_observed("COc1cc2c(/C=C3/C(=O)N(C)c4cc5c(cc43)/C(=C\\c3c(Cl)[nH]c4cc(C)c(OC)cc34)C(=O)N5C)c(Cl)[nH]c2cc1C")
1.95
>>> value_observed("COc1ccc2c(c1)/C(=C\\c1cc(C(C)(C)C)cc(/C=C3/C(=O)N(C)c4ccc(OC)cc43)c1O)C(=O)N2C")
2.51

Now consider the entry below.
Look up and report measured GI50 for this entry: O=C1Nc2cc(Cl)ccc2/C1=C\c1cccc(/C=C2/C(=O)Nc3cc(Cl)ccc32)c1 3.09

* * *

Test system: Melanoma cell line
Assay: Cell growth inhibition of human Melanoma cells incubated for 48 hrs by SRB assay
Format: functional
value-type: GI (µM)
Note: unit µM is implicit; provide only the numeric part.

Look up and report measured GI for this entry: COc1ccc2[nH]c(Cl)c(/C=C3/C(=O)N(C)c4cc5c(cc43)/C(=C\c3c(Cl)[nH]c4ccc(OC)cc34)C(=O)N5C)c2c1 2.04

Look up and report measured GI for this entry: COc1cc2c(c(OC)c1OC)/C(=C\c1ccc3ccc4ccc(/C=C5/C(=O)Nc6cc(OC)c(OC)c(OC)c65)nc4c3n1)C(=O)N2 18.62

Look up and report measured GI for this entry: CC(C)(C)c1cc(/C=C2/C(=O)Nc3ccc(F)cc32)c(O)c(/C=C2/C(=O)Nc3ccc(F)cc32)c1 3.02

* * *

Each item that follows carries a reported CC50.
Experiment: Cytotoxicity against human Leukemia cancer cells incubated for 48 hrs by SRB assay
Assay type: functional
Conditions: Leukemia cell, read-out: LC50 (the source's name)
Note: unit µM is implicit; provide only the numeric part.

>>> value_observed("COc1ccc2[nH]c(Cl)c(/C=C3/C(=O)N(C)c4cc5c(cc43)/C(=C\\c3c(Cl)[nH]c4ccc(OC)cc34)C(=O)N5C)c2c1")
89.1
>>> value_observed("Cc1cc2c(cc1O)/C(=C\\c1cc(C(C)(C)C)cc(C=O)c1O)C(=O)N2")
81.3
>>> value_observed("CC(C)(C)c1cc(/C=C2/C(=O)Nc3cccc(F)c32)c(O)c(/C=C2/C(=O)Nc3cccc(F)c32)c1")
22.9

Now consider the entry below.
Look up and report measured CC50 for this entry: CC(C)(C)c1cc(/C=C2/C(=O)Nc3cc(Cl)ccc32)c(O)c(/C=C2/C(=O)Nc3cc(Cl)ccc32)c1 97.7

* * *

Test system: Panel NCI-60 (60 carcinoma cell lines)
Test: Cell growth inhibition of human Panel NCI-60 (60 carcinoma cell lines) incubated for 48 hrs by SRB assay
Format: functional
value-type: GI50 (µM)
Note: unit µM is implicit; provide only the numeric part.

>>> value_observed("COc1ccc2c(c1)/C(=C\\c1cc(C(C)(C)C)cc(/C=C3/C(=O)N(C)c4ccc(OC)cc43)c1O)C(=O)N2C")
2.24

Look up and report measured GI50 for this entry: CC(C)(C)c1cc(/C=C2/C(=O)Nc3cccc(F)c32)c(O)c(/C=C2/C(=O)Nc3cccc(F)c32)c1 2.14

Look up and report measured GI50 for this entry: CC(C)(C)c1cc(/C=C2/C(=O)Nc3ccc(F)cc32)c(O)c(/C=C2/C(=O)Nc3ccc(F)cc32)c1 3.8

Look up and report measured GI50 for this entry: O=C1Nc2cccc(F)c2/C1=C\c1cccc(/C=C2/C(=O)Nc3cccc(F)c32)c1 1.91

Data origin, for the record: ChEMBL document CHEMBL5500359
